# assay.target: T1, hLTBP3-proTGFβ1 (human, UniProt Q9NS15 44-1303; P01137 30-390, limits assumed)
# T1 construct: LLC as m1; Same id used for the cell-made complex in reporter assays; also called human LTBP3-proTGFβ1 complex; LTBP3-ProTGFb1
# T1 sequence (Q9NS15 44-1303 limits assumed, chain 1 of 2): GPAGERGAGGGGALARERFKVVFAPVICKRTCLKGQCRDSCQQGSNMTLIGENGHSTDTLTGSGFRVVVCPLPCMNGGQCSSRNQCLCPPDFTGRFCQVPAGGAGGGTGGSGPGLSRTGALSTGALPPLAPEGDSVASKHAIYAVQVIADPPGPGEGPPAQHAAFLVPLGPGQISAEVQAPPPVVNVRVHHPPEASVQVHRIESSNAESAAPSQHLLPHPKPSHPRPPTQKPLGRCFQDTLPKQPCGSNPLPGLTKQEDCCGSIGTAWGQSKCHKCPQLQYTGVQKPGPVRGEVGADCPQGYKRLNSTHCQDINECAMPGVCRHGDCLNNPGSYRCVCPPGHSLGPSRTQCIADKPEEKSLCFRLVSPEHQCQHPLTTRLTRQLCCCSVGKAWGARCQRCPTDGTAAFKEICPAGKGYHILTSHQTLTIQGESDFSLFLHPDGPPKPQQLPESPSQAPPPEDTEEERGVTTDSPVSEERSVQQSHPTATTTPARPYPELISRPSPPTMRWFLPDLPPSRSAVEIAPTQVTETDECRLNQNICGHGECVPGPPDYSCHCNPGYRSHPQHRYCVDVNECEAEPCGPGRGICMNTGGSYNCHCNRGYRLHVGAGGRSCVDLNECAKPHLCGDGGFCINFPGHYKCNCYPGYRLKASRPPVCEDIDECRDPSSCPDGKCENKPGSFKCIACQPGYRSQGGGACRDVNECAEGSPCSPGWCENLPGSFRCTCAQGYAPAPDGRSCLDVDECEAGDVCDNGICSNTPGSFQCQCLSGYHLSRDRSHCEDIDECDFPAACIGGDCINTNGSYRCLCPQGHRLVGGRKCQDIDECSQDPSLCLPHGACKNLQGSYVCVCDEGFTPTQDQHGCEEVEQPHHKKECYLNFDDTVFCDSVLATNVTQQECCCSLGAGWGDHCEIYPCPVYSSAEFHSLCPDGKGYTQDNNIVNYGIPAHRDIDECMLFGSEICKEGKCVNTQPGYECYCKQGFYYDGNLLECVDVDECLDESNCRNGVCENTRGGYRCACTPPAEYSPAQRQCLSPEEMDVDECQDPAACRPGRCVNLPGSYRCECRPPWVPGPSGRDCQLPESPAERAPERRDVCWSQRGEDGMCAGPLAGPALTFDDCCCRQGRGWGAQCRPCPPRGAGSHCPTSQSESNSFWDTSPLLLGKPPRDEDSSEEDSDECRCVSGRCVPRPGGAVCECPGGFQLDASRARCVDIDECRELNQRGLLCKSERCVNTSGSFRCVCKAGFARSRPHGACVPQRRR
# T1 sequence (P01137 30-390 limits assumed, chain 2 of 2): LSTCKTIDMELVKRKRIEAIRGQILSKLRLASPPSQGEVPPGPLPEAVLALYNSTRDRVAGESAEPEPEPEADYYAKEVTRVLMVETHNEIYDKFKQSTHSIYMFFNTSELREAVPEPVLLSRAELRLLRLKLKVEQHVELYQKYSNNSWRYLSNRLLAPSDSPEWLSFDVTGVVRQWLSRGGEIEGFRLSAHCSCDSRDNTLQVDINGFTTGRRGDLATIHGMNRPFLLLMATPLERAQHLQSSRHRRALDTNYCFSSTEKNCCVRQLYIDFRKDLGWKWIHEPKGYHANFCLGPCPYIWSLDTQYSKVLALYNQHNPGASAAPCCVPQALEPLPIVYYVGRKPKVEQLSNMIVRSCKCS
# assay: BLI (Octet)
measure.name: pKd
The value called pKd is obtained by taking minus log10 of the concentration in mol/L.

Return value of pKd for input Ab25 (antibody, V domains shown) VH: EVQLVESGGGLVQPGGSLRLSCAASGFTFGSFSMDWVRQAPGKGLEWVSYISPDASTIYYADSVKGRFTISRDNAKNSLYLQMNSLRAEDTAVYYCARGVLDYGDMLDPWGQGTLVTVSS VL: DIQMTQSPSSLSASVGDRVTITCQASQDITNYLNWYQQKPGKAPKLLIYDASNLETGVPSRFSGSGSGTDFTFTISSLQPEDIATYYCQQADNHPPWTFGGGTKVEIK , no commentary. 9.82

Return value of pKd for input Ab23 (antibody, V domains shown) VH: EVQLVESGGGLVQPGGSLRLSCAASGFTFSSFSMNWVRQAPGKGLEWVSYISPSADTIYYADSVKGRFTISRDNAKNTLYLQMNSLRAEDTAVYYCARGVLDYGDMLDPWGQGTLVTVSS VL: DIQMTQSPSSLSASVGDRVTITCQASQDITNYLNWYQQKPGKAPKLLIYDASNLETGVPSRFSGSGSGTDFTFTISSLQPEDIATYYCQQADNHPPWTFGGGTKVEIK , no commentary. 9.33

Return value of pKd for input Ab6 (antibody, V domains shown, Fully human IgG4/kappa) VH: EVQLVESGGGLVQPGGSLRLSCTASGFTFSSFSMDWVRQAPGKGLEWVSYISPSADTIYYADSVKGRFTISRDNAKNTLYLQMNSLRAEDTAVYYCARGVLDYGDMLMPWGQGTLVTVSS VL: DIQMTQSPSSLSASVGDRVTITCQASQDITNYLNWYQQKPGKAPKLLIYDASNLETGVPSRFSGSGSGTDFTFTISSLQPEDIATYYCQQADNHPPWTFGGGTKVEIKR , no commentary. 9.91

Return value of pKd for input Ab27 (antibody, V domains shown) VH: EVQLVESGGGLVQPGGSLRLSCAASGFTFSFYAMNWVRQAPGKGLEWVSYISPDASTIYYADSVKGRFTISRDNAKNSLYLQMNSLRAEDTAVYYCARGVLDYGDMLDPWGQGTLVTVSS VL: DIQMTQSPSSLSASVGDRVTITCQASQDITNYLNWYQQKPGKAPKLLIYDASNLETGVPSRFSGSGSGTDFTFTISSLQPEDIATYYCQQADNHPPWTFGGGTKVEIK , no commentary. 9.62
